pIC50 by entry:
Test System: TNFα / TNFα receptor (TNFα R1/Fc) (Homo sapiens, UniProt P01375)
Construct: purchased R&D Systems
Sequence (P01375 77-233 limits assumed, species assumed): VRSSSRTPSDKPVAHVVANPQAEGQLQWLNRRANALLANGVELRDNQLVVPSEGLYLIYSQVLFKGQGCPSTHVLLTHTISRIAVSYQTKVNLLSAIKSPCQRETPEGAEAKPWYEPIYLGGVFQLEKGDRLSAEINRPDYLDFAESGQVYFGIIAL
Assay Comment: Inhibition of binding of TNFα to the TNFα receptor (plate ELISA competition)
Condition Parameters: Table 2; read-out: Activity (IC50, inhibition of TNFα binding to TNFα R1/Fc)
pIC50: −log10 of the molar value. Numbered stars: 1 amine (or outer) side, 2 acyl side, 3 side chain; on linkers, the order of the positions; unused ones are H or OH. Bridge positions count the residues as written; N and C are the ends. Square brackets hold non-standard residues; d marks the D form. Peptide text beside a SMILES is read from it. Phe(4-COOH) = N[C@@H](Cc1ccc(C(=O)O)cc1)C(=O)O; Phe(2,4-Cl2) = N[C@@H](Cc1ccc(Cl)cc1Cl)C(=O)O; Bip = N[C@@H](Cc1ccc(-c2ccccc2)cc1)C(=O)O; dPhe(4-NH2) = Nc1ccc(C[C@@H](N)C(=O)O)cc1; Phe(4-NH2) = Nc1ccc(C[C@H](N)C(=O)O)cc1; dAla(2-furyl) = N[C@H](Cc1ccco1)C(=O)O; d(hPhe) = N[C@H](CCc1ccccc1)C(=O)O; hPhe = N[C@@H](CCc1ccccc1)C(=O)O; d2Thi = N[C@H](Cc1cccs1)C(=O)O; Suc = O=C(CCC(=O)[*:2])[*:1]; βAla = NCCC(=O)O

Solved cases below.
Molecule | Test System | pIC50
O=C1COc2ccc(cc2)C[C@@H](C(=O)O)NC(=O)[C@@H](Cc2ccccc2)NC(=O)[C@H](Cc2ccc(-c3ccccc3)cc2)NC(=O)[C@H](Cc2cccs2)N1 | TNFα / TNFα receptor (TNFα R1/Fc) (Homo sapiens, UniProt P01375) | 4.00 to 4.52
O=C(O)[C@H](Cc1ccccc1)NC(=O)[C@@H]1Cc2ccc(cc2)NC(=O)[C@H](O)[C@@H](O)C(=O)N[C@H](Cc2cccs2)C(=O)N[C@@H](Cc2ccc(-c3ccccc3)cc2)C(=O)N[C@H](CCc2ccccc2)C(=O)N1 | TNFα / TNFα receptor (TNFα R1/Fc) (Homo sapiens, UniProt P01375) | > 5.00
CC(C)(C)c1ccc(C[C@@H]2NC(=O)[C@@H](Cc3ccc(-c4ccccc4)cc3)NC(=O)[C@H](Cc3cccs3)NC(=O)COc3ccc(cc3)C[C@@H](C(=O)O)NC2=O)cc1 | TNFα / TNFα receptor (TNFα R1/Fc) (Homo sapiens, UniProt P01375) | > 5.00
O=C1CCC(=O)N[C@H](CCc2ccccc2)C(=O)N[C@@H](Cc2ccc(Cl)cc2Cl)C(=O)N[C@H](Cc2ccccc2)C(=O)N[C@@H](C(=O)N[C@@H](Cc2ccccc2)C(=O)O)Cc2ccc(cc2)N1 [Compound 441] ([d(hPhe)][Phe(2,4-Cl2)][dF][dPhe(4-NH2)]F-OH; linker N-4 via Suc) | TNFα / TNFα receptor (TNFα R1/Fc) (Homo sapiens, UniProt P01375) | 4.52 to 5.00
O=C1CCC(=O)N[C@H](Cc2cccs2)C(=O)N[C@@H](Cc2ccc(-c3ccccc3)cc2)C(=O)N[C@H](Cc2ccco2)C(=O)N[C@H](C(=O)O)Cc2ccc(cc2)N1 [Compound 48] ([d2Thi][Bip][dAla(2-furyl)][Phe(4-NH2)]-OH; linker N-4 via Suc) | TNFα / TNFα receptor (TNFα R1/Fc) (Homo sapiens, UniProt P01375) | 4.52 to 5.00

get_value(item= O=C1CCNC(=O)c2ccc(cc2)C[C@@H](C(=O)O)NC(=O)[C@@H](Cc2ccccc2)NC(=O)[C@H](Cc2ccc(-c3ccccc3)cc2)NC(=O)[C@H](CCc2ccccc2)N1 [Compound 467] ([βAla][hPhe][Bip][dF][Phe(4-COOH)]-OH; lactam N-5) , readout=pIC50) returns < 4.00

Sure, the documented pIC50 for O=C(O)CC[C@H](NC(=O)[C@@H]1Cc2ccc(cc2)OCC(=O)N[C@H](Cc2cccs2)C(=O)N[C@@H](Cc2ccc(-c3ccccc3)cc2)C(=O)N[C@H](CCc2ccccc2)C(=O)N1)C(=O)O is < 4.00

###

Measured IC50 values are reported for all entries that follow.
Test System: TNFα / TNFα receptor (TNFα R1/Fc) (Homo sapiens, UniProt P01375)
Construct: purchased R&D Systems
Assay Comment: Inhibition of binding of TNFα to the TNFα receptor (plate ELISA competition)
Condition Parameters: Table 2; read-out: Activity (IC50, inhibition of TNFα binding to TNFα R1/Fc)
Numbered stars: 1 amine (or outer) side, 2 acyl side, 3 side chain; on linkers, the order of the positions; unused ones are H or OH. Bridge positions count the residues as written; N and C are the ends. Square brackets hold non-standard residues; d marks the D form. Peptide text beside a SMILES is read from it. Phe(4-COOH) = N[C@@H](Cc1ccc(C(=O)O)cc1)C(=O)O; dBip = N[C@H](Cc1ccc(-c2ccccc2)cc1)C(=O)O; Phe(3-OMe) = COc1cccc(C[C@H](N)C(=O)O)c1; Phe(4-NH2) = Nc1ccc(C[C@H](N)C(=O)O)cc1; hPhe = N[C@@H](CCc1ccccc1)C(=O)O; d2Thi = N[C@H](Cc1cccs1)C(=O)O; Suc = O=C(CCC(=O)[*:2])[*:1]; βAla = NCCC(=O)O

// solved cases for IC50 follow
Molecule | IC50
O=C1COc2ccc(cc2)C[C@@H](C(=O)O)NC(=O)[C@H](Cc2ccccc2F)NC(=O)[C@@H](Cc2ccc(-c3ccccc3)cc2)NC(=O)[C@H](Cc2cccs2)N1 [Compound 625] | < 10 µM
O=C1COc2ccc(cc2)C[C@@H](C(=O)O)NC(=O)[C@H](Cc2ccccc2)NC(=O)[C@@H](Cc2cccc3ccccc23)NC(=O)[C@H](Cc2cccs2)N1 [Compound 357] | > 100 µM
N#Cc1ccc(C[C@H]2NC(=O)[C@H](O)[C@@H](O)C(=O)Nc3ccc(cc3)C[C@@H](C(=O)O)NC(=O)[C@@H](Cc3ccccc3)NC(=O)[C@H](Cc3ccc(-c4ccccc4)cc3)NC2=O)cc1 [Compound 260] | 30 to 100 µM
O=C(O)[C@@H]1Cc2ccc(cc2)NC(=O)[C@H](O)[C@@H](O)C(=O)N[C@H](Cc2cccs2)C(=O)N[C@H](Cc2ccc(-c3ccccc3)cc2)C(=O)N[C@@H](Cc2ccccc2)C(=O)N1 [Compound 274] | > 100 µM
O=C1COc2ccc(cc2)C[C@@H](C(=O)O)NC(=O)[C@@H](CCc2ccccc2)NC(=O)[C@H](Cc2ccc(-c3ccccc3)cc2)NC(=O)[C@@H](Cc2cccs2)N1 [Compound 145] | 10 to 30 µM
O=C(O)CCCNC(=O)[C@H]1Cc2ccc(cc2)OCC(=O)N[C@@H](Cc2c[nH]c3ccccc23)C(=O)N[C@H](Cc2ccc(-c3ccccc3)cc2)C(=O)N[C@@H](Cc2ccccc2F)C(=O)N1 [compound 713] | < 10 µM
COc1cccc(C[C@@H]2NC(=O)[C@@H](Cc3cccs3)NC(=O)CCC(=O)Nc3ccc(cc3)C[C@@H](C(=O)O)NC(=O)[C@@H](Cc3ccccc3)NC2=O)c1 [Compound 88] ([d2Thi][Phe(3-OMe)][dF][Phe(4-NH2)]-OH; linker N-4 via Suc) | > 100 µM
O=C1CCNC(=O)c2ccc(cc2)C[C@@H](C(=O)O)NC(=O)[C@@H](Cc2ccccc2)NC(=O)[C@@H](Cc2ccc(-c3ccccc3)cc2)NC(=O)[C@H](CCc2ccccc2)N1 [Compound 468] ([βAla][hPhe][dBip][dF][Phe(4-COOH)]-OH; lactam N-5) | > 100 µM
O=C1COc2ccc(cc2)C[C@H](C(=O)O)NC(=O)[C@H](Cc2ccccc2F)NC(=O)[C@@H](Cc2ccc(-c3ccccc3)cc2)NC(=O)[C@H](Cc2c[nH]c3ccccc23)N1 [Compound 728] | 10 to 30 µM
O=C1COc2ccc(cc2)C[C@@H](C(=O)O)NC(=O)[C@@H]2CCCN2C(=O)[C@@H](Cc2ccc(-c3ccccc3)cc2)NC(=O)[C@H](Cc2cccs2)N1 [Compound 250] | > 100 µM

Just so you know, measured IC50 for O=C1CCC(=O)N[C@H](CCc2ccccc2)C(=O)N[C@@H](Cc2ccc(-c3ncccn3)cc2)C(=O)N[C@H](Cc2ccccc2)C(=O)N[C@H](C(=O)O)Cc2ccc(cc2)N1 [Compound 114] came out at > 100 µM

// IC50 lookup, molecule = Cc1ccc(C[C@@H]2NC(=O)COc3ccc(cc3)C[C@@H](C(=O)O)NC(=O)[C@H](CCc3ccccc3)NC(=O)[C@@H](Cc3ccc(-c4ccccc4)cc3)NC2=O)cc1 [Compound 692] , result: < 10 µM

Recorded result, O=C1COc2ccc(cc2)C[C@@H](C(=O)O)NC(=O)[C@H](CCc2ccccc2)NC(=O)[C@@H](Cc2ccc(-c3ccccc3)cc2)NC(=O)[C@H](Cc2cccs2)N1 [Compound 348] , IC50: < 10 µM

The molecule listed as O=C(O)CCNC(=O)[C@@H]1Cc2ccc(cc2)OCC(=O)N[C@@H](Cc2ccc(-c3ccccc3)cc2)C(=O)N[C@H](Cc2ccc(-c3ccccc3)cc2)C(=O)N[C@@H](CCc2ccccc2)C(=O)N1 [Compound 569] has a reported IC50 of < 10 µM
